FYI, the data here is from patent US8207135B2.

Measured IFNγ concentration in sera of individual entries
test system: IFNγ; test: in vivo IFNγ release in sera by ELISA 24 hours after inoculation; parameters: species or system C57BL/6 mice; conditions: 100 ng IV, Quantikine kit, FIG. 4
Reply numerically in pg/mL, unit not repeated.

Recorded results for 2 compounds are shown here.
compound: CCCCCCCCCCCCCCCCCCCCCCCCCC(=O)N[C@@H](CO[C@H]1O[C@H](CNC(C)=O)[C@H](O)[C@H](O)[C@H]1O)[C@H](O)[C@H](O)CCCCCCCCCCCCCC [PBS-14]
units-of-measure: pg/mL
IFNγ concentration in sera: 19582.18

compound: CCCCCCCCCCCCCCCCCCCCCCCC(=O)N[C@@H](CO[C@H]1O[C@H](CNC(C)=O)[C@H](O)[C@H](O)[C@H]1O)[C@H](O)[C@H](O)CCCCCCCCCCCCCC [PBS-96]
units-of-measure: pg/mL
IFNγ concentration in sera: 19679.89

Request: Entry under review: CCCCCCCC/C=C\CCCCCCCCCCCCCC(=O)N[C@@H](CO[C@H]1O[C@H](CNC(C)=O)[C@H](O)[C@H](O)[C@H]1O)[C@H](O)[C@H](O)CCCCCCCCCCCCCC [PBS-57, reference compound] . Reported IFNγ concentration in sera?
Response: 21432.76

Request: Entry under review: CCCCCCCCCCCCCCCCCCCCCCCCCC(=O)N[C@@H](CO[C@H]1O[C@H](CO)[C@H](O)[C@H](O)[C@H]1O)[C@H](O)[C@H](O)CCCCCCCCCCCCCC [αGalCer, α-galactosyceramide, reference compound] . Reported IFNγ concentration in sera?
Response: 7714.37

* * *

tested on: Ova-specific target cells; assay: in vivo cytotoxic specific cell lysis assay (CD8+ T cell response) in immunized mice; design: species or system mouse; settings: Example 2, FIG. 3; IM, 400 μg Ova with or without 1 μg adjuvant, day 11 blood
metric-name: average OVA-specific cytotoxic response (%)
Reply numerically in %, unit not repeated.

Request: Entry under review: `CCCCCCCCCCCCCCCCCCCCCCCCCC(=O)N[C@@H](CO[C@H]1O[C@H](CNC(C)=O)[C@H](O)[C@H](O)[C@H]1O)[C@H](O)[C@H](O)CCCCCCCCCCCCCC` . Reported average OVA-specific cytotoxic response?
Response: 52.07

Request: Entry under review: `CCCCCCCCCCCCCCCCCCCCCCCC(=O)N[C@@H](CO[C@H]1O[C@H](CNC(C)=O)[C@H](O)[C@H](O)[C@H]1O)[C@H](O)[C@H](O)CCCCCCCCCCCCCC` . Reported average OVA-specific cytotoxic response?
Response: 50.29

Request: Entry under review: CCCCCCCC/C=C\CCCCCCCCCCCCCC(=O)N[C@@H](CO[C@H]1O[C@H](CNC(C)=O)[C@H](O)[C@H](O)[C@H]1O)[C@H](O)[C@H](O)CCCCCCCCCCCCCC [PBS-57, reference compound] . Reported average OVA-specific cytotoxic response?
Response: 56.11

Request: Entry under review: CCCCCCCCCCCCCCCCCCCCCCCCCC(=O)N[C@@H](CO[C@H]1O[C@H](CO)[C@H](O)[C@H](O)[C@H]1O)[C@H](O)[C@H](O)CCCCCCCCCCCCCC [αGalCer, α-galactosyceramide, reference compound] . Reported average OVA-specific cytotoxic response?
Response: −5.85
